target: Dual specificity protein kinase CLK3 (Homo sapiens, UniProt P49761); assay: Inhibition of GST-tagged human recombinant CLK3 expressed in Escherichia coli using RS peptide as substrate incubated for 30 mins in presence of [gamma-33 P] ATP by liquid scintillation counting analysis
Sequence (P49761 whole entry): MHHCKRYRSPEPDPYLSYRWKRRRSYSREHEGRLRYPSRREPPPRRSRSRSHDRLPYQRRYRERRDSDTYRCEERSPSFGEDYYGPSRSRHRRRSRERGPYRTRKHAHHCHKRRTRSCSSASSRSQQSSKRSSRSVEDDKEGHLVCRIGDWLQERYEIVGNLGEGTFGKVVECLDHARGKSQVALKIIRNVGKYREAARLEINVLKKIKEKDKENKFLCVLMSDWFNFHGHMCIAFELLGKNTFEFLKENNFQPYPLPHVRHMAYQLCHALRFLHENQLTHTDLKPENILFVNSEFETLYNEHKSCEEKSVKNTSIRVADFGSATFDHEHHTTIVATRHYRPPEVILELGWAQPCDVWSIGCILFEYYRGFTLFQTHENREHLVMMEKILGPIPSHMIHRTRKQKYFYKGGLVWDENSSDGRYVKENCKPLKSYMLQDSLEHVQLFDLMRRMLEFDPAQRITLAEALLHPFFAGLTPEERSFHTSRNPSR
Kindly state pIC50 for each of the entries shown.
Answers are plain numbers, as −log10 of the molar value.

Consider the worked cases shown below.
COc1ccc2[nH]cc(-c3cc4cnccc4cc3NC(C)=O)c2c1 5.15
COc1ccc2c(c1)[nH]c1c3ccncc3cc(CNC(C)=O)c21 5.10
N#Cc1cc2cnccc2c2[nH]c3ncccc3c12 5.17

Give measured pIC50 for every item shown.
1. COc1ccc2[nH]c3c4ccncc4cc(C#N)c3c2c1
2. COc1ccc2c(c1)[nH]c1c3ccncc3cc(CN)c21
3. COc1ccc2c(-c3ccncc3)c[nH]c2n1

1: 6.15; 2: 5.15; 3: 5.21

Give measured pIC50 for every item shown.
1. COc1cccc2c1[nH]c1c3ccncc3cc(C(N)=O)c21
2. COc1ccc2c(c1)[nH]c1c3ccncc3cc(C#N)c21

1. 5.21
2. 6.72

---

molecular target: Dual specificity protein kinase CLK2 (Homo sapiens, UniProt P49760); experiment: Inhibition of GST-tagged human recombinant CLK2 expressed in Escherichia coli using RS peptide as substrate incubated for 30 mins in presence of [gamma-33 P] ATP by liquid scintillation counting analysis
Sequence (P49760 whole entry): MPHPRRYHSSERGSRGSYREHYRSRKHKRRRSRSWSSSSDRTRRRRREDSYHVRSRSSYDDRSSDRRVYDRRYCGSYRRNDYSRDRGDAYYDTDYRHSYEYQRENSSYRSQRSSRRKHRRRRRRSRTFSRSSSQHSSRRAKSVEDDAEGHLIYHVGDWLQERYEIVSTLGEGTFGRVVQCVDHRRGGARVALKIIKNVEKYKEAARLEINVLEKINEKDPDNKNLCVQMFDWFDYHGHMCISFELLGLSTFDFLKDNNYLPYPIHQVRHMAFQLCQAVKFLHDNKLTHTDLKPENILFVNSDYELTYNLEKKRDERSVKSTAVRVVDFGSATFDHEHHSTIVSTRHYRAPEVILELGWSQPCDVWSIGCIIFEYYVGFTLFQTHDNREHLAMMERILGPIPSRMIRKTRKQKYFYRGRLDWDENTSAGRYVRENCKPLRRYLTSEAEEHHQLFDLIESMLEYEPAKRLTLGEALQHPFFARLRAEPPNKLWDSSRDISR
Experimental Readout: log10 IC50 (log10 of the value in nM)
Annotation: log10 of IC50, nM basis.

Consider the worked cases shown below.
COc1ccc2c(/C(C#N)=C/c3cccnc3)c[nH]c2n1 3.36
COc1ccc2c(c1)[nH]c1c3c(OC)cncc3cc(C#N)c21 2.18
N#Cc1cc2ccncc2c2[nH]c3ccccc3c12 3.04
COc1ccc2c(c1)[nH]c1c3ccncc3cc(C#N)c21 1.90
COc1ccc2c(c1)[nH]c1c3ccncc3cc(CNC(C)=O)c21 3.45

Please examine the following record next.
The compound N#Cc1cc2cnccc2c2[nH]c3ccc(F)cc3c12 showed log10 IC50 equal to 2.79

---

Kindly state IC50 for each of the entries shown.
molecular target: Dual specificity tyrosine-phosphorylation-regulated kinase 1A (Homo sapiens); assay: Inhibition of GST-tagged human recombinant DYRK1A expressed in Escherichia coli using RS peptide as substrate incubated for 30 mins in presence of [gamma-33 P] ATP by liquid scintillation counting analysis
Answers are plain numbers, in nM.

Consider the worked cases shown below.
COc1ccc2c(c1)[nH]c1c3ccncc3cc(CN)c21 870
COc1ccc2[nH]c3c4c(OC)cncc4cc(C#N)c3c2c1 600
COc1ccc2c(/C(C#N)=C/c3cccnc3)c[nH]c2c1 1600
COc1cccc2[nH]cc(/C(C#N)=C/c3cccnc3)c12 6000
COc1ccc2[nH]cc(-c3cc4cnccc4cc3NC(C)=O)c2c1 850
COc1ccc2c(c1)[nH]c1c3ccncc3cc(CNC(C)=O)c21 970
COc1ccc2c(n1)[nH]c1c3ccncc3cc(C#N)c21 200
COc1cccc2c1[nH]c1c3ccncc3cc(C#N)c21 27

Give measured IC50 for every item shown.
1. COc1cccc2c(/C(C#N)=C/c3cccnc3)c[nH]c12
2. N#Cc1cc2cnccc2c2[nH]c3ccc(Cl)cc3c12
3. N#C/C(=C\c1cccnc1)c1c[nH]c2ccc(F)cc12

1. 1200
2. 4000
3. 1800
